Data origin, for the record: ChEMBL document CHEMBL4052749

# target.of.assay: Prostaglandin E synthase (Homo sapiens)
# Sequence (whole entry): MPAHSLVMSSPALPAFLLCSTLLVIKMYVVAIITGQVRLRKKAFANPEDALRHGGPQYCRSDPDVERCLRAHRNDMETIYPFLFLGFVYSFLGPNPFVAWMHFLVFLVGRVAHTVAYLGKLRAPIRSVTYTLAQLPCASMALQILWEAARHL
# method.description: Inhibition of human mPGES-1 expressed in 293-F cells using PGH2 as substrate preincubated for 15 mins followed by substrate addition measured after 30 secs at 10 uM by enzyme immunoassay
# inhibition annotations
# value in %; strip the unit string

Worked cases, answers included:
[
  {
    "smiles.representation": "COc1ccc2nc3cc(Cl)ccc3c(SCC(=O)Nc3ccccc3-c3ccccc3NC(=O)CSc3c4ccc(Cl)cc4nc4ccc(OC)cc34)c2c1",
    "outcome.measure": "inhibition",
    "observed": 57
  },
  {
    "smiles.representation": "C[C@@H]1c2c(cc(OC(=O)c3cccc(S(=O)(=O)F)c3)nc2OC(=O)c2cccc(S(=O)(=O)F)c2)C(=O)N1Cc1ccccc1",
    "outcome.measure": "inhibition",
    "observed": 15
  },
  {
    "smiles.representation": "COc1ccc(C(=O)COC(=O)[C@H](C[Se][Se]C[C@H](NC(=O)c2ccc(Br)cc2F)C(=O)OCC(=O)c2ccc(OC)cc2)NC(=O)c2ccc(Br)cc2F)cc1",
    "outcome.measure": "inhibition",
    "observed": 65
  },
  {
    "smiles.representation": "O=C(Nc1ccccc1)c1cc(S(=O)(=O)Nc2n[nH]c(=O)[nH]2)c(SSc2cc(Cl)c(C(=O)Nc3ccccc3)cc2S(=O)(=O)Nc2n[nH]c(=O)[nH]2)cc1Cl",
    "outcome.measure": "inhibition",
    "observed": 59
  },
  {
    "smiles.representation": "O=[N+]([O-])c1ccc(CSc2ncc(Br)c(SCc3ccc([N+](=O)[O-])cc3)n2)cc1",
    "outcome.measure": "inhibition",
    "observed": 26
  }
]

Now consider the entry below.
Qu. Reported inhibition, compound Cc1noc(NS(=O)(=O)c2ccc(/N=N/c3cc(/N=N/c4ccc(S(=O)(=O)Nc5onc(C)c5C)cc4)c4c(NC(=O)C(Cl)Cl)cccc4c3OC(=O)C(Cl)Cl)cc2)c1C : ____
Ans. 43

* * *

# method.description: Inhibition of ovine COX1/human COX2 assessed as reduction in PGH2 production by measuring PGF2alpha using PG-acetylcholinesterase as tracer by colorimetry
pIC50: −log10 of the molar value.
outcome.measure: pIC50

Qu. Reported pIC50, compound COc1ccc(N(Nc2ccc(Br)cc2)c2ccccc2N(Nc2ccc(Br)cc2)c2ccccc2OC)cc1 : ____
Ans. < 4.00

* * *

# IC50 annotations
# target.of.assay: Prostaglandin E synthase (Homo sapiens)
# Sequence (O14684 whole entry): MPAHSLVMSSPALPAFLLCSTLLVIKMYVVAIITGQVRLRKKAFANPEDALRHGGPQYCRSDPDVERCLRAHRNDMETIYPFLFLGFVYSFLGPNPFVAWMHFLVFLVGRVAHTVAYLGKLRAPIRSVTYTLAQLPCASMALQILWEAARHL
# method.description: Inhibition of human mPGES-1 expressed in 293-F cells using PGH2 as substrate preincubated for 15 mins followed by substrate addition measured after 30 secs enzyme immunoassay
# value in nM; strip the unit string

Worked cases, answers included:
[
  {
    "compound": "O=[N+]([O-])c1ccc(N/N=C(\\C=C\\c2ccc3c(c2)OCO3)c2cnc(Nc3ccc(Cl)c(Cl)c3)s2)c([N+](=O)[O-])c1",
    "outcome.measure": "IC50",
    "observed": 284
  },
  {
    "compound": "Cc1ccccc1NC(=O)/C(Cc1nc2ccc(C(=O)c3ccccc3)cc2nc1O)=N\\NC(=O)c1ccncc1",
    "outcome.measure": "IC50",
    "observed": 664
  },
  {
    "compound": "COc1ccc(N(Nc2ccc(Br)cc2)c2ccccc2N(Nc2ccc(Br)cc2)c2ccccc2OC)cc1",
    "outcome.measure": "IC50",
    "observed": 889
  },
  {
    "compound": "CCCCOc1ccc(NC(=S)Nc2ccc(N(C)C)cc2)cc1 [THIAMBUTOSINE]",
    "outcome.measure": "IC50",
    "observed": 370
  },
  {
    "compound": "CC(C)(C)c1cc(OCc2nnc3sc(-c4ccc(Cl)cc4)nn23)c(Cl)cc1OCc1nnc2sc(-c3ccc(Cl)cc3)nn12",
    "outcome.measure": "IC50",
    "observed": 917
  }
]

Qu. Reported IC50, compound CC(=O)O[C@H]1CC[C@]2(C)C3C[C@@]4(C)C(CCC4[C@@H](C)CCCC(C)C)C[C@]3(C#N)n3c(=O)n(-c4ccccc4)c(=O)n3[C@]2(C#N)C1 (some centres not stated) : ____
Ans. 276

Qu. Can you check N#Cc1cccc(C2C(=O)c3c(c(-c4ccccc4)c(-c4ccc(Sc5ccc(-c6c(-c7ccccc7)c7c(c(-c8ccccc8)c6-c6ccccc6)C(=O)N(c6cccc(C#N)c6)C7=O)cc5)cc4)c(-c4ccccc4)c3-c3ccccc3)C2=O)c1 (configuration not stated) next?
Ans. 439
